System: Mycobacterium tuberculosis
Test: microbe, parasite or virus in culture
Assay type: functional
endpoint_label: MIC

// below: answered molecules
CCCc1cc(=O)oc2c1c(OCCN1CCOCC1)cc1oc(/C(N)=N\O)cc12: > 50 µg/mL
CCCc1cc(=O)oc2c1c(OCCN1CCOCC1)cc1oc(-c3noc(=O)[nH]3)cc12: > 50 µg/mL
CCCc1cc(=O)oc2c1c(OCCN1CCOCC1)cc1oc(C#N)cc12: > 50 µg/mL

Ask: Reported MIC for CCCc1cc(=O)oc2c1c1c(c3oc(C(=O)O)cc32)C=CC(C)(C)O1 : what is it?
Result: > 50 µg/mL

Ask: Reported MIC for CCCc1cc(=O)oc2c1c(OCCN1CCOCC1)cc1oc(C(=N)N)cc12 : what is it?
Result: > 50 µg/mL

Ask: Reported MIC for CCCc1cc(=O)oc2c1c(OCCN1CCOCC1)cc1oc(-c3noc(C)n3)cc12 : what is it?
Result: > 50 µg/mL

Ask: Reported MIC for CCCc1cc(=O)oc2c1c(OCCN1CCOCC1)cc1oc(C(=O)OCC)cc12 : what is it?
Result: > 50 µg/mL

Ask: Reported MIC for CCCc1cc(=O)oc2c1c(OCCN1CCOCC1)cc1oc(C(=O)O)cc12 : what is it?
Result: > 50 µg/mL

Ask: Reported MIC for CCCc1cc(=O)oc2c1c1c(c3oc(C(=O)NN)cc32)C=CC(C)(C)O1 : what is it?
Result: 50 µg/mL

Ask: Reported MIC for CCCc1cc(=O)oc2c1c1c(c3oc(C(=O)NNC(=O)c4ccncc4)cc32)C=CC(C)(C)O1 : what is it?
Result: 25 µg/mL

###

The compounds listed here are annotated with their MIC.
Tested on: Mycobacterium tuberculosis
Assay: microbe, parasite or virus in culture
Type: functional

CCCc1cc(=O)oc2c1c1c(c3oc(C#N)cc32)C=CC(C)(C)O1: > 50 µg/mL
CCCc1cc(=O)oc2c1c1c(c3oc(C(=O)N=[N+]=[N-])cc32)C=CC(C)(C)O1: > 50 µg/mL
CCCc1cc(=O)oc2c1c1c(c3oc(NC(=O)OCC)cc32)C=CC(C)(C)O1: > 50 µg/mL
CCCc1cc(=O)oc2c1c(OCCN1CCOCC1)cc1oc(-c3noc(C(F)(F)F)n3)cc12: > 50 µg/mL
CCCc1cc(=O)oc2c1c1c(c3oc(C(=O)OCC)cc32)C=CC(C)(C)O1: > 50 µg/mL

Now for the compound whose MIC we want.
Ask: Reported MIC for CCCc1cc(=O)oc2c1c(OCCN1CCOCC1)cc1oc(C(=O)NN)cc12 : what is it?
Result: > 50 µg/mL
